Measured IC50 on Sodium-dependent serotonin transporter (Rattus norvegicus, UniProt P31652) follows.
Sequence (P31652 whole entry): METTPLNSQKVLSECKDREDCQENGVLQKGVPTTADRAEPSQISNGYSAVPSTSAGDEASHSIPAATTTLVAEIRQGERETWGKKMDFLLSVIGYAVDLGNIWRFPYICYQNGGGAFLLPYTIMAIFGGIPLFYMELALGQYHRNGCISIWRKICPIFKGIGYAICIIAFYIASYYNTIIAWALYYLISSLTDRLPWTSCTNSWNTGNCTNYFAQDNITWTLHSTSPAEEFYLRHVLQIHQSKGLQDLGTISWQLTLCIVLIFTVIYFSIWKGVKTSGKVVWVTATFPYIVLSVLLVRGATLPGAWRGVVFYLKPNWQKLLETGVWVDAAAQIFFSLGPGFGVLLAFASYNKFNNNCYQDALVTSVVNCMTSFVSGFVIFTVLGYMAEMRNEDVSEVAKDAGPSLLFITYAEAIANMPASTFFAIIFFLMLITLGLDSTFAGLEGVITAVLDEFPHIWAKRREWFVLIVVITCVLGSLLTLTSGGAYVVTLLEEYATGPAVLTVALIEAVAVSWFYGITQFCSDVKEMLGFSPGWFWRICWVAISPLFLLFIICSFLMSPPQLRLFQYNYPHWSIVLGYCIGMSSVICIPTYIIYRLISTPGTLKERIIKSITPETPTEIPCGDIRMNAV

# MOLECULE, UNIT_ABBREVIATION, IC50
records = [
    ("COC(=O)C1C2CC[C@H](C[C@@H]1c1ccc(Cl)cc1)N2C (some centres undefined)", "µM", 0.0445),
    ("CC(C)OC(=O)[C@@H]1C2CC[C@H](C[C@@H]1OC(=O)c1ccccc1)N2C", "µM", 25.7),
    ("CCOC(=O)[C@@H]1C2CC[C@H](C[C@@H]1OC(=O)c1ccccc1)N2C", "µM", 9.06),
    ("CN1C2CC[C@@H]1C[C@H](c1ccc(I)cc1)[C@@H]2C(=O)Oc1ccccc1", "µM", 0.326),
]
